# Assay Comment: Plasma stability assay, human plasma
# Assay type: in vitro ADME
# Measurement Setup: human plasma, 240 min, 10 μM, 37° C.
Metric: Plasma Stability 240 min hum [% remain.] (% remain.)

Query Smiles	Reading Unit	Reported Result
C[C@H]1COc2cccc(c2)-c2cccc(c2)C(=O)N(C)[C@H](C(=O)NCc2ccc3ccccc3c2)CCC(=O)N1	% remain.	100
COc1ccc2c(c1)-c1cccc(c1)C(=O)N(C)[C@H](C(=O)NCC(=O)O)CCC(=O)N[C@H](C)CO2	% remain.	100
C[C@H]1COc2cccc(c2)-c2cccc(c2)C(=O)N(C)[C@H](C(N)=O)CCC(=O)N1	% remain.	100
COCCNC(=O)[C@@H]1CCC(=O)N[C@H](C)COc2ccc(OC)cc2-c2cccc(c2)C(=O)N1C	% remain.	100
C[C@H]1COc2cccc(c2)-c2cccc(c2)C(=O)N(C)[C@H](C(=O)NCc2cccc3ccccc23)CCC(=O)N1	% remain.	100
C[C@H]1COc2cccc(c2)-c2cccc(c2)C(=O)N(C)[C@H](C(=O)NCCN(C)C)CCC(=O)N1	% remain.	99
C[C@H]1COc2cccc(c2)-c2cccc(c2)C(=O)N(C)[C@H](C(=O)Nc2ccccc2)CCC(=O)N1	% remain.	100
COc1ccc2c(c1)-c1cccc(c1)C(=O)N(C)[C@H](C(=O)Nc1ccccc1)CCC(=O)N[C@H](C)CO2	% remain.	76
COc1ccc2c(c1)-c1cccc(c1)C(=O)N(C)[C@H](C(=O)NCc1cccc3ccccc13)CCC(=O)N[C@H](C)CO2	% remain.	97
CNC(=O)[C@@H]1CCC(=O)N[C@H](C)COc2ccc(OC)cc2-c2cccc(c2)C(=O)N1C	% remain.	100
COc1ccc2c(c1)-c1cccc(c1)C(=O)N(C)[C@H](C(=O)NCc1cccnc1)CCC(=O)N[C@H](C)CO2	% remain.	100
C[C@H]1COc2cccc(c2)-c2cccc(c2)C(=O)N(C)[C@H](C(=O)NCC(F)(F)F)CCC(=O)N1	% remain.	100
COc1ccc2c(c1)-c1cccc(c1)C(=O)N(C)[C@H](C(=O)O)CCC(=O)N[C@H](C)CO2	% remain.	91
CC(C)CNC(=O)[C@@H]1CCC(=O)N[C@@H](C)COc2cccc(c2)-c2cccc(c2)C(=O)N1C	% remain.	90
COc1ccc2c(c1)-c1cccc(c1)C(=O)N(C)[C@H](C(=O)N1CCCC1)CCC(=O)N[C@H](C)CO2	% remain.	100

Reference source: patent US10017481B2
